// GI50 lookup, one value per entry
Test system: OVCAR-5
Test: NCI tumour cell line growth inhibition, 48 h
Calls of active or inactive are those of the source. Cut-off read from the data, not from the text of the source: active = GI50 up to about 1.1 µM and inactive = higher.

Example cases with answers are listed next.
COc1cc(S(=O)(=O)N/N=C/C=C/c2ccccc2)c(OC)cc1NC(C)=O; 38.6 µM (inactive)
CC1CC[C@@]2(OC1)O[C@H]1[C@H](O)[C@H]3[C@@H]4CC[C@H]5C[C@@H](OC6OC(CO)C(OC7OC(CO)C(O)C(OC8OCC(O)C(O)C8O)C7OC7OC(CO)C(O)C(O)C7OC7OC(CO)C(O)C(O)C7O)C(O)C6O)[C@H](O)C[C@]5(C)[C@H]4CC[C@]3(C)[C@H]1[C@@H]2C (stereo partly drawn); > 10 µM (inactive)
COc1ccc(C2=C(Cl)c3cc(OC)c(OC)cc3C2=O)cc1OC; 19.8 µM (inactive)
O=[N+]([O-])/C=C/c1cc2ccccc2[nH]1; 19.5 µM (inactive)
Cc1cc(N(CCC#N)CCC#N)ccc1/N=N/c1ccc([N+](=O)[O-])cc1; > 100 µM (inactive)

Specify reported GI50 for the compound shown: CC1=C(C)SC(=C2Sc3c(n(C)c(=O)n(C)c3=O)S2)S1
> 100 µM (inactive)

Specify reported GI50 for the compound shown: COc1ccc2nc3n(c2c1)C(c1c(F)cccc1F)SC3 (stereo not drawn)
> 100 µM (inactive)

Specify reported GI50 for the compound shown: CC1(C)CC(=O)C(=CNC(N)=S)C(=O)C1
> 100 µM (inactive)

---

System: SNB-75
Assay: NCI tumour cell line growth inhibition, 48 h
Calls of active or inactive are those of the source. Rule as the data show it: active = GI50 up to about 1.1 µM and inactive = higher.
// GI50 lookup, one value per entry

Example cases with answers are listed next.
Oc1ccc2ccccc2c1-c1c(Nc2ccccc2)ccc2ccccc12; 16.1 µM (inactive)
Cc1cnc2c(c1)C(=O)N(c1ccc([N+](=O)[O-])cc1)S2(=O)=O; 61.1 µM (inactive)
C=CCOC(=O)/C(=C\c1ccc(OC)c(OC)c1)c1ccc(OC)c(OC)c1; 1.66 µM (inactive)
COCOc1ccc(C(=O)Oc2cccc3c2OC(C)(C)O3)c(OCOC)c1; 74.5 µM (inactive)
CCSC12OC3(CCCCCN3C1=O)C1C(=O)N(c3ccccc3)C(=O)C12 (stereo not given); > 100 µM (inactive)

Specify reported GI50 for the compound shown: CCCc1nc(NC#N)nc(C(=O)NC23CC4CC(CC(C4)C2)C3)c1C
> 100 µM (inactive)

Specify reported GI50 for the compound shown: [N-]=[N+]=NCC1OCC(O)C(OCc2ccccc2)C1OCc1ccccc1 (stereo not given)
20.5 µM (inactive)

Specify reported GI50 for the compound shown: Cn1c(-c2ccccc2)c/c(=N\NS(C)(=O)=O)c2cc(S(=O)(=O)O)ccc21
> 100 µM (inactive)

Specify reported GI50 for the compound shown: COc1ccc(/C=N/CCC/N=C/c2ccc(OC)cc2O)c(O)c1
13.9 µM (inactive)

Specify reported GI50 for the compound shown: Nc1nc(Cl)c(N)c(NCC2(CO)CC(CCCc3ccccc3)C2)n1 (stereo not given)
20.4 µM (inactive)

---

System: NCI-H23
Test: NCI tumour cell line growth inhibition, 48 h
Activity calls are given as the source filed them. Cut-off read from the data, not from the text of the source: active = GI50 up to about 1.1 µM and inactive = higher.
measurement_name: GI50

CC(C)(C)c1cc(C2=NN(c3ccccc3)C(c3ccccc3)C2)cc(C(C)(C)C)c1O (stereo not given); > 100 µM (inactive)

Specify reported GI50 for the compound shown: O=[N+]([O-])/C=C/c1cc2ccccc2[nH]1
13.1 µM (inactive)

Specify reported GI50 for the compound shown: CCOC(=O)C(NNS(=O)(=O)c1ccc(C)cc1)S(=O)(=O)C(F)(F)C(F)(F)C(F)(F)C(F)(F)F (stereo not given)
> 100 µM (inactive)

Specify reported GI50 for the compound shown: COC([C@@H](OC(=O)c1ccccc1)[C@H](OC(=O)c1ccccc1)C(O)COC(=O)c1ccccc1)n1cc(C)c(=O)[nH]c1=O (stereo not given in full)
29.4 µM (inactive)

Specify reported GI50 for the compound shown: COC(=O)c1cc2c(o1)Sc1ccccc1NC2=O
> 100 µM (inactive)

Specify reported GI50 for the compound shown: NCC(=O)OCN1C(=O)C2C3C=CC(C2C1=O)C1C2C(=O)N(COC(=O)CN)C(=O)C2C31 (stereo not given)
29.2 µM (inactive)

Specify reported GI50 for the compound shown: COC(=O)c1c(O)ccc2c1c1c(n2Cc2ccc(Cl)cc2Cl)C(=O)c2ccccc2C1
60 µM (inactive)

Specify reported GI50 for the compound shown: COCOCC/C=C/C=O
> 100 µM (inactive)

Specify reported GI50 for the compound shown: C=C(C)C(=O)OC1C/C(CO)=C\C(O)C/C(C)=C/C2OC(=O)C(=C)C21 (stereo not given)
> 10 µM (inactive)

Specify reported GI50 for the compound shown: COC(=O)c1cc(C)n(CN(Cc2ccccc2)Cn2nc(C(=O)OC)cc2C)n1
> 100 µM (inactive)

---

System: ACHN
Experiment: NCI tumour cell line growth inhibition, 48 h
Active and inactive are the calls of the source. No stated cut-off is given here; in the data, active = GI50 up to about 1.1 µM and inactive = higher.
# output must be one of active, inactive

NC1=Nc2ccccc2Sc2nccn21; inactive

What call does the record list for O=C(/C=C/c1ccccc1Cl)NC1C=Nc2ccc([N+](=O)[O-])cc2NC1 (stereo not drawn) ?
inactive

What call does the record list for CCc1n[nH]c(=O)n1NC(=O)CCCC(=O)O ?
inactive

What call does the record list for C/C(=C1/N=C(c2ccccc2)OC1=O)c1ccc(C)cc1 ?
inactive

What call does the record list for O=C(O)CN(CC(=O)O)C1CCCCC1N1CC(=O)OC(=O)C1 (stereo not drawn) ?
inactive

What call does the record list for CCOC(=O)C(NC(=O)CC(C)C)(Nc1ccc(S(=O)(=O)Nc2nc(C)cc(C)n2)cc1)C(F)(F)F (stereo not drawn) ?
inactive

What call does the record list for CC(C)(C)c1cc(C2=NN(c3ccccc3)C(c3ccccc3)C2)cc(C(C)(C)C)c1O (stereo not drawn) ?
inactive

What call does the record list for CC1=C(c2cc(C(=O)Nc3cccc(C(F)(F)F)c3)ncn2)Sc2ccccc2N1 ?
inactive

What call does the record list for CN1N=C(c2ccncc2)OC1c1ccccc1F (stereo not drawn) ?
inactive

What call does the record list for c1ccc(C2=NOC3COc4ccccc4OCC23)cc1 (stereo not drawn) ?
inactive

What call does the record list for OCN(CO)c1ccc2c(c1)Cc1cc(F)ccc1-2 ?
inactive

What call does the record list for COc1cc(Br)cc2nc(-c3cccs3)oc12 ?
inactive

What call does the record list for CN(C)C1(N(C)C)Oc2c(c(=O)n(C)c(=O)n2C)C(c2ccc(C(F)(F)F)cc2)C1(F)F (stereo not drawn) ?
inactive

---

Tested on: RPMI-8226
Assay: NCI tumour cell line growth inhibition, 48 h
Active and inactive are the calls of the source. Rule as the data show it: active = GI50 up to about 1.1 µM and inactive = higher.
measurement_name: GI50

Example cases with answers are listed next.
COc1ccc(N(CN2C(=O)CCC2C(=O)O)C(C)=O)cc1 (stereo unspecified); > 100 µM (inactive)
Nc1nc(Cl)c(CO)c(NCC2(CO)CCC2)n1; > 100 µM (inactive)
O=S(=O)(c1ccccc1)c1nccs1; > 100 µM (inactive)
CCOC(=O)c1c(N2CCCC2)nsc1Nc1ccc(F)cc1; 36.6 µM (inactive)
CC(C)NC1(C(N)=O)CCN(Cc2ccccc2)CC1; > 100 µM (inactive)

# lookup: RPMI-8226 GI50, key = CN1C(=O)C(O)CC1c1ccc(C(F)(F)F)cc1 (stereo unspecified)
> 100 µM (inactive)

# lookup: RPMI-8226 GI50, key = C[C@]12c3c4cc(NC(=O)C(=O)NCc5ccc(-c6ccccn6)nc5)cc3Oc3cc(NC(=O)C(=O)NCc5ccc(-c6ccccn6)nc5)cc(c31)OC1C=C(NC(=O)C(=O)NCc3ccc(-c5ccccn5)nc3)C=C(O4)C12 (stereo partly specified)
42.1 µM (inactive)

# lookup: RPMI-8226 GI50, key = Cn1c(=O)c2c(ncn2CCNC(CO)C(O)c2ccc([N+](=O)[O-])cc2)n(C)c1=O (stereo unspecified)
> 100 µM (inactive)

# lookup: RPMI-8226 GI50, key = O=C(/C=C/c1ccc2ccccc2c1)NCc1ccc(C(=O)NCc2ccccc2)cc1
> 93.8 µM (inactive)

# lookup: RPMI-8226 GI50, key = CC(=O)CCn1[nH]c(=O)c(Cl)c(Cl)c1=O
> 100 µM (inactive)

# lookup: RPMI-8226 GI50, key = O=C(O)Cc1ccc(Oc2nc3ccccc3nc2C(=O)O)cc1
> 100 µM (inactive)

# lookup: RPMI-8226 GI50, key = N#CC(C(=O)c1ccccc1F)c1nc2cc(C(F)(F)F)ccc2s1 (stereo unspecified)
22 µM (inactive)

# lookup: RPMI-8226 GI50, key = S=C(c1c[nH]c2ccccc12)N1CCCCC1
36.9 µM (inactive)

# lookup: RPMI-8226 GI50, key = C=CC1C(OC2OC(CO)C(O)C(O)C2O)OC=C(C(=O)OC)C1CC1CC(=O)CC(CCc2ccc(O)cc2)O1 (stereo unspecified)
> 100 µM (inactive)

# lookup: RPMI-8226 GI50, key = COc1ccc(/C=N/n2c(Cc3ccccc3)n[nH]c2=O)c(OC)c1
> 100 µM (inactive)

# lookup: RPMI-8226 GI50, key = CC1(CCCCO)C=CC(S(=O)(=O)c2ccccc2)CC1 (stereo unspecified)
1.56 µM (inactive)

# lookup: RPMI-8226 GI50, key = CC1(C23CC4CC(CC(C4)C2)C3)n2c(=O)n(-c3ccccc3)c(=O)n2C1(C)C12CC3CC(CC(C3)C1)C2 (stereo unspecified)
89.7 µM (inactive)

# lookup: RPMI-8226 GI50, key = CCOC(=O)c1c2c(n(Cc3ccccc3)c1C)C(=O)C(=O)c1ccccc1-2
0.119 µM (active)

# lookup: RPMI-8226 GI50, key = O=C1C(Cl)N(c2ccc(Cl)cc2Cl)C1c1c[nH]c2ccccc12 (stereo unspecified)
> 100 µM (inactive)

# lookup: RPMI-8226 GI50, key = CCc1n[nH]c(=O)n1NC(=O)CCCC(=O)O
> 100 µM (inactive)

# lookup: RPMI-8226 GI50, key = COC(=O)C(Cc1nc2ccccc2nc1O)C(=O)C(=O)Nc1ccc([N+](=O)[O-])cc1[N+](=O)[O-] (stereo unspecified)
23.1 µM (inactive)
